test: chemical genetic growth profiling, strain panel (AID 1159580);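 note: tested at 20 µM; growth read once vehicle control cultures reached saturation at 30 °C; 1 = growth at the plate median or of vehicle wells; lower values mean less growth of the strain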; settings: S. cerevisiae deletion strains, growth OD, locus YEL061C, strain CIN8, active compounds read low
Among all 5,500 compounds or so, about 2,000 (36%) were called active. About 18% were inconclusive and are not listed. This is one part of the list.
EXPERIMENTAL_ENDPOINT: normalized growth
Just the number, please, no unit attached.

Lookup: Report normalized growth for Cc1ccccc1N1C(=O)c2cc(S(N)(=O)=O)c(Cl)cc2NC1C (stereo unspecified) please.
Found: 0.993

Lookup: Report normalized growth for COC1=CC(C)[C@@H]2C[C@H]3OC(=O)C[C@H]4C(C)=C(OC)C(=O)C([C@@]34C)[C@@]2(C)C1=O (stereo partly specified) please.
Found: 1.01

Lookup: Report normalized growth for `Cc1ccc(NC(=O)CC#N)c(C)c1` please.
Found: 1.03

Lookup: Report normalized growth for `CN(C)/C=C1\CSc2ccc(F)cc2C1=O` please.
Found: 0.613

Lookup: Report normalized growth for `CC(=O)Oc1ccccc1C(=O)Oc1ccccc1C(=O)O` please.
Found: 0.999

Lookup: Report normalized growth for `COc1ccccc1NC(=S)NCCC(=O)O` please.
Found: 0.991

---

assay: chemical genetic growth profiling, strain panel (AID 1159580);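 note: tested at 20 µM; growth read once vehicle control cultures reached saturation at 30 °C; 1 = growth at the plate median or of vehicle wells; lower values mean less growth of the strain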; settings: S. cerevisiae deletion strains, growth OD, locus YNL250W, strain rad50, active compounds read low
The campaign covered roughly 5,500 compounds. About 2,000 (36%) were called active. Roughly 18% stayed inconclusive and do not appear here. Some of the results follow.
EXPERIMENTAL_ENDPOINT: normalized growth
Just the number, please, no unit attached.

Lookup: Report normalized growth for CO[C@@H]1C[C@H](O[C@H]2CC[C@]3(C)C4CC[C@]5(C)[C@@H](C6=CC(=O)OC6)CC[C@]5(O)[C@@H]4CC[C@]3(O)C2)O[C@H](C)[C@@H]1O (stereo partly specified) please.
Found: 0.964

Lookup: Report normalized growth for Oc1ccc2c3c1OC1[C@@H](O)CC[C@@]4(O)[C@@H](C2)N(CC2CCC2)CC[C@]314 (stereo partly specified) please.
Found: 1.01

Lookup: Report normalized growth for `O=C(O)CN(CCN(CC(=O)O)CC(=O)O)CC(=O)O` please.
Found: 1.01

Lookup: Report normalized growth for CC[C@H]1CN2CCC1C[C@@H]2[C@@H](O)c1ccnc2ccc(OC)cc12 (stereo partly specified) please.
Found: 1.01

Lookup: Report normalized growth for COC(=O)C(N)CS (stereo unspecified) please.
Found: 0.98

Lookup: Report normalized growth for `CC1(C)[C@@H]2CC[C@@]1(C)C(=O)C2` please.
Found: 1.03

Lookup: Report normalized growth for COC1CC(O[C@H]2CC[C@]3(C=O)C4CC[C@]5(C)C(C6=CC(=O)OC6)CC[C@]5(O)C4CC[C@]3(O)C2)OC(C)C1O (stereo partly specified) please.
Found: 0.972

Lookup: Report normalized growth for CC(C)=CC1C(CO)C1(C)C (stereo unspecified) please.
Found: 0.994

Lookup: Report normalized growth for COC1C(O)C(O[C@H]2CC[C@]3(C=O)C4C(CC[C@]3(O)C2)[C@@]2(O)CC[C@H](C3=CC(=O)OC3)[C@@]2(C)C[C@H]4OC(C)=O)OC(C)C1OC(C)=O (stereo partly specified) please.
Found: 1.04

Lookup: Report normalized growth for CC(=O)OC1CC[C@@]2(C)C(CCC3C2CC[C@]2(C)C(C4=CC(=O)OC4)C(OC(C)=O)CC32O)C1 (stereo partly specified) please.
Found: 1.02

Lookup: Report normalized growth for CC12CCC3C(CCC4(O)CC(O)CCC34/C=N/NC(N)=O)C1(O)CCC2C1=CC(=O)OC1 (stereo unspecified) please.
Found: 0.985

Lookup: Report normalized growth for `NC[C@H]1O[C@H](O[C@H]2[C@H](O)[C@@H](O[C@H]3O[C@H](CO)[C@@H](O)[C@H](N)[C@H]3O)[C@H](N)C[C@@H]2N)[C@H](N)[C@@H](O)[C@@H]1O` please.
Found: 0.96

Lookup: Report normalized growth for `CC1(C)S[C@@H]2[C@H](NC(=O)[C@@H](N)c3ccc(O)cc3)C(=O)N2[C@H]1C(=O)O` please.
Found: 1

Lookup: Report normalized growth for CC(C)(C)NCC(O)COc1cccc2c1C[C@H](O)[C@H](O)C2 (stereo partly specified) please.
Found: 0.972

Lookup: Report normalized growth for CC1(C)S[C@@H]2[C@H](NC(=O)C(C(=O)O)c3ccccc3)C(=O)N2[C@H]1C(=O)O (stereo partly specified) please.
Found: 0.975

Lookup: Report normalized growth for C[C@H]1O[C@@H](O[C@H]2[C@@H](O)C[C@H](O[C@H]3[C@@H](O)C[C@H](O[C@H]4CC[C@]5(C)C6CC[C@]7(C)[C@@H](C8=CC(=O)OC8)CC[C@]7(O)C6CC[C@@H]5C4)O[C@@H]3C)O[C@@H]2C)C[C@H](O)[C@@H]1O (stereo partly specified) please.
Found: 0.997

---

experiment: chemical genetic growth profiling, strain panel (AID 1159580);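 note: tested at 20 µM; growth read once vehicle control cultures reached saturation at 30 °C; 1 = growth at the plate median or of vehicle wells; lower values mean less growth of the strain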; conditions: S. cerevisiae deletion strains, growth OD, locus YER155C, strain BEM2, active compounds read low
In all, about 5,500 compounds went through this assay and about 2,000 (36%) were called active. Not shown: some 18% with an inconclusive outcome. Some of the results follow.
For each record, write down the corresponding normalized growth.
Just the number, please, no unit attached.

Lookup: Report normalized growth for CC1CCCC(C)N1NC(=O)c1ccc(Cl)c(S(N)(=O)=O)c1 (centres undefined) please.
Found: 1

Lookup: Report normalized growth for CC1(C)Oc2ccc3ccc(=O)oc3c2CC1O (centres undefined) please.
Found: 1.01

Lookup: Report normalized growth for CC1Cc2ccccc2N1NC(=O)c1ccc(Cl)c(S(N)(=O)=O)c1 (centres undefined) please.
Found: 1.01

Lookup: Report normalized growth for NS(=O)(=O)c1cc2c(cc1C(F)(F)F)NC(Cc1ccccc1)NS2(=O)=O (centres undefined) please.
Found: 0.999

Lookup: Report normalized growth for `C/C=C(/C)C(=O)O[C@@H]1Cc2c(ccc3ccc(=O)oc23)OC1(C)C` please.
Found: 1

Lookup: Report normalized growth for CC(=O)OCC(=O)[C@@]1(O)CCC2C3C[C@H](C)C4=CC(=O)C=CC4(C)C3[C@@H](O)CC21C (some centres undefined) please.
Found: 1.01

Lookup: Report normalized growth for COC1CC(O[C@H]2CC[C@]3(C=O)C4CC[C@]5(C)C(C6=CC(=O)OC6)CC[C@]5(O)C4CC[C@]3(O)C2)OC(C)C1O (some centres undefined) please.
Found: 1.01

Lookup: Report normalized growth for `CCCc1nn(C)c2c(=O)[nH]c(-c3cc(S(=O)(=O)N4CCN(C)CC4)ccc3OCC)nc12` please.
Found: 1.01

Lookup: Report normalized growth for Cc1ccccc1N1C(=O)c2cc(S(N)(=O)=O)c(Cl)cc2NC1C (centres undefined) please.
Found: 0.981

---

test: chemical genetic growth profiling, strain panel (AID 1159580);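 note: tested at 20 µM; growth read once vehicle control cultures reached saturation at 30 °C; 1 = growth at the plate median or of vehicle wells; lower values mean less growth of the strain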; details: S. cerevisiae deletion strains, growth OD, locus YHR094C, strain hxt1
In all, about 5,500 compounds went through this assay and about 2,000 (36%) were called active. Another 18% or so got no clear call; they are omitted. No stated cut-off is given here; in the data, active means normalized growth mostly below about 0.91 (no sharp cut-off); inconclusive means no clear call, values can overlap the other calls; inactive means mostly above about 0.92. Some of the results follow.
Classes to choose from: active, inactive

Lookup: Hi, sorry to bother you, what did the test record for `O=C(CCCN1CCC(O)(c2ccc(Cl)cc2)CC1)c1ccc(F)cc1` ?
Found: inactive

Lookup: Hi, sorry to bother you, what did the test record for C[C@H]1O[C@@H](O[C@H]2[C@@H](O)C[C@H](O[C@H]3[C@@H](O)C[C@H](O[C@H]4CC[C@]5(C)C6CC[C@]7(C)[C@@H](C8=CC(=O)OC8)CC[C@]7(O)C6CC[C@@H]5C4)O[C@@H]3C)O[C@@H]2C)C[C@H](O)[C@@H]1O (stereo partly specified) ?
Found: inactive

Lookup: Hi, sorry to bother you, what did the test record for C[C@@H]1CC[C@@]23CCC4(C)[C@@](C=CC5[C@@]6(C)CCC(=O)C(C)(C)C6CC[C@]54C)(OC2=O)C3[C@H]1C (stereo partly specified) ?
Found: active

Lookup: Hi, sorry to bother you, what did the test record for CC1=C2C(O)C(=O)OC3CC4C(C)(C)C(=O)C=C[C@]4(C)C(CC1)[C@]23C (stereo partly specified) ?
Found: inactive

Lookup: Hi, sorry to bother you, what did the test record for NC[C@@H]1O[C@H](O[C@@H]2[C@@H](CO)OC(O[C@@H]3[C@@H](O)[C@H](N)C[C@H](N)[C@H]3O[C@H]3O[C@H](CO)[C@@H](O)[C@H](O)[C@H]3N)[C@@H]2O)[C@H](N)[C@@H](O)[C@@H]1O (stereo partly specified) ?
Found: inactive

Lookup: Hi, sorry to bother you, what did the test record for CC(=O)OC1CC[C@@]2(C)C(CCC3C2CC[C@]2(C)C(C4=CC(=O)OC4)C(OC(C)=O)CC32O)C1 (stereo partly specified) ?
Found: inactive

Lookup: Hi, sorry to bother you, what did the test record for `CC[C@@]1(O)C(=O)OCc2c1cc1n(c2=O)Cc2cc3ccccc3nc2-1` ?
Found: inactive

Lookup: Hi, sorry to bother you, what did the test record for C[C@H]1[C@H](C)CC[C@]2(C(=O)O)CC[C@]3(C)C(=CCC4[C@@]5(C)C[C@@H](O)[C@H](O)[C@@](C)(CO)C5[C@H](O)C[C@]43C)[C@H]12 (stereo partly specified) ?
Found: inactive

Lookup: Hi, sorry to bother you, what did the test record for `Cc1cc(N)c2ccccc2[n+]1CCCCCCCCCC[n+]1c(C)cc(N)c2ccccc21` ?
Found: active

Lookup: Hi, sorry to bother you, what did the test record for C[C@]12CC[C@H](O)C[C@H]1CCC1C2CC[C@]2(C)[C@@H](C3=CC(=O)OC3)[C@@H](O)C[C@]12O (stereo partly specified) ?
Found: inactive

Lookup: Hi, sorry to bother you, what did the test record for `COC(=O)[C@H]1[C@H]2C[C@H]3c4[nH]c5cc(OC)ccc5c4CCN3C[C@H]2C[C@@H](OC(=O)c2cc(OC)c(OC)c(OC)c2)[C@@H]1OC` ?
Found: inactive

Lookup: Hi, sorry to bother you, what did the test record for `Nc1nc(/C(=C/CC(=O)O)C(=O)N[C@@H]2C(=O)N3C(C(=O)O)=CCS[C@H]23)cs1` ?
Found: inactive

Lookup: Hi, sorry to bother you, what did the test record for CC1(C)S[C@@H]2[C@H](NC(=O)C(C(=O)O)c3ccccc3)C(=O)N2[C@H]1C(=O)O (stereo partly specified) ?
Found: inactive

Lookup: Hi, sorry to bother you, what did the test record for COC(=O)CC1C(C)(C)C(OC(C)=O)[C@@H]2[C@@H](OC(C)=O)[C@]34O[C@@]2(O)[C@]1(C)C3CC[C@]1(C)C4=CC(=O)O[C@H]1c1ccoc1 (stereo partly specified) ?
Found: inactive

Lookup: Hi, sorry to bother you, what did the test record for CC(=O)N1CCN(c2ccc(OCC3CO[C@](Cn4ccnc4)(c4ccc(Cl)cc4Cl)O3)cc2)CC1 (stereo partly specified) ?
Found: active

Lookup: Hi, sorry to bother you, what did the test record for CCCCCC(O)C1C(=O)OC(C)C(O)/C=C/C=C/C=C/C=C/C=C(\C)C(O)CC(O)CC(O)CC(O)CC(O)CC(O)CC1O (stereo unspecified) ?
Found: inactive

Lookup: Hi, sorry to bother you, what did the test record for C[C@@H]1CC[C@@]23CCC4(C)[C@@](C=CC5[C@@]6(C)CC[C@H](O)C(C)(C)C6CC[C@]54C)(OC2=O)C3[C@H]1C (stereo partly specified) ?
Found: active

Lookup: Hi, sorry to bother you, what did the test record for CC1CCCC(C)N1NC(=O)c1ccc(Cl)c(S(N)(=O)=O)c1 (stereo unspecified) ?
Found: inactive

Lookup: Hi, sorry to bother you, what did the test record for CC1(C)S[C@@H]2C(N3C(=O)[C@@H](c4ccccc4)NC3(C)C)C(=O)N2[C@H]1C(=O)O (stereo partly specified) ?
Found: inactive

Lookup: Hi, sorry to bother you, what did the test record for C[C@@H]1O[C@@H](O[C@H]2CC[C@]3(C=O)C4CC[C@]5(C)[C@@H](C6=CC(=O)OC6)CC[C@]5(O)C4CC[C@]3(O)C2)[C@H](O)[C@H](O)[C@H]1O (stereo partly specified) ?
Found: inactive

Lookup: Hi, sorry to bother you, what did the test record for CC1(C)Oc2ccc3ccc(=O)oc3c2CC1O (stereo unspecified) ?
Found: inactive

Lookup: Hi, sorry to bother you, what did the test record for `O=C(O)CN(CCN(CC(=O)O)CC(=O)O)CC(=O)O` ?
Found: inactive

Lookup: Hi, sorry to bother you, what did the test record for CC1Cc2ccccc2N1NC(=O)c1ccc(Cl)c(S(N)(=O)=O)c1 (stereo unspecified) ?
Found: inactive

Lookup: Hi, sorry to bother you, what did the test record for COC1C(O)C(O[C@H]2CC[C@]3(C=O)C4C(CC[C@]3(O)C2)[C@@]2(O)CC[C@H](C3=CC(=O)OC3)[C@@]2(C)C[C@H]4OC(C)=O)OC(C)C1OC(C)=O (stereo partly specified) ?
Found: active

Lookup: Hi, sorry to bother you, what did the test record for `N#Cc1c(Cl)cccc1Cl` ?
Found: inactive

Lookup: Hi, sorry to bother you, what did the test record for CC1(C)O[C@@H]2CC3C4C[C@H](F)C5=CC(=O)CC[C@]5(C)C4[C@@H](O)C[C@]3(C)[C@]2(C(=O)CO)O1 (stereo partly specified) ?
Found: inactive

Lookup: Hi, sorry to bother you, what did the test record for CC[C@H]1CN2CCC1C[C@@H]2[C@@H](O)c1ccnc2ccc(OC)cc12 (stereo partly specified) ?
Found: inactive

Lookup: Hi, sorry to bother you, what did the test record for Cc1c(OCC(F)(F)F)ccnc1CS(=O)c1nc2ccccc2[nH]1 (stereo unspecified) ?
Found: inactive

Lookup: Hi, sorry to bother you, what did the test record for `CC1(C)S[C@@H]2[C@H](NC(=O)[C@@H](N)c3ccc(O)cc3)C(=O)N2[C@H]1C(=O)O` ?
Found: inactive

Lookup: Hi, sorry to bother you, what did the test record for C[C@@H]1CCC2[C@](C)(CO)[C@@H](O)CC[C@]2(C)[C@@]12CC[C@@](CO)(CCO)O2 (stereo partly specified) ?
Found: inactive

Lookup: Hi, sorry to bother you, what did the test record for `C/C=C(\C)C(=O)O[C@@H]1c2c(ccc3ccc(=O)oc23)OC(C)(C)[C@@H]1OC(C)=O` ?
Found: inactive
